- Protocol Text: label from the status in PepcDB records
Endpoint Label: protein production

Solved cases (5 shown):
Query: Param item = `MGREFLDLFEQWAESYDQSVEGYDEQYRDVFAGYDRILSTVADKAGQVVLEFGIGTGNLTKKLLERGKTVYGIEPSAPMRKKAAEKLGERAVIMDGDFLQFPLPPEPIDTIASTYAFHHLTDAEKDEAIAKYSQLLHSGGKIVFADTAFRDKEAFRQTVEAARARGFHDLADDLEREYYTTLDVLASLFANHGFSVSFAQQNAFVWVMEAVKQTTLEHHHHHH` ; retrieve measured protein production.
Reply: not failed

Query: Now give it for `MITVNFLILLLGLVFLVKGSDYFVKSASTIAKKLGVSEFVIGLTLVAIGTSIPELASSIAASIQQASGIVIGNVVGSNIANVGLIVGVAALLSPMKTEIDMLKRDGYIMLFSAVLFFVFAFNRELSMLEAGLFVLLYIAYVFFLFEEAEKYEGKLHFKEFITYFFKFKYINSAMQKLNGNRNRNSDSDRNSDSGNGNERLEGGFAKDIFTLVLSCAAIVIGAKYFVEESIFFAELLGIPDTVIGTTLVAVGTSLPELVVTVSAARQGYGSIALGNVIGSNITNIFLILGLSGLFYPLSVAEMSLFFTTPVMIAISLILLIFISTGWEIKRWEGVVLMMFYVAFLVVLFYI` too.
Reply: failed

Query: Now give it for `MITTTIFPGRYVQGAGAINILEEELSRFGERAFVVIDDFVDKNVLGENFFSSFTKVRVNKQIFGGECSDEEIERLSGLVEEETDVVVGIGGGKTLDTAKAVAYKLKKPVVIVPTIASTDAPCSALSVIYTPNGEFKRYLFLPRNPDVVLVDTEIVAKAPARFLVAGMGDALATWFEAESCKQKYAPNMTGRLGSMTAYALARLCYETLLEYGVLAKRSVEEKSVTPALEKIVEANTLLSGLGFESGGLAAAHAIHNGLTVLENTHKYLHGEKVAIGVLASLFLTDKPRKMIEEVYSFCEEVGLPTTLAEIGLDGVSDEDLMKVAEKACDKNETIHNEPQPVTSKDVFFALKAADRYGRMRKNLT` too.
Reply: not failed

Query: Now give it for `MIEIKQVKTQDEVNYTFVEKLMHTAFPQEERRDTVQQREYSDNNPRFCNNIILENGNSIGMISYWTMGDFYYIEHFAIDPSLRNGGYGKRVLEMIKKQLKGPIVLEVEEPNDEMSTRRIHFYKRLEFTLHKKPYIQPPYRKGDSGLPMLLMTYGDIDMESDFEKVKKTLYKEVYGQEI` too.
Reply: not failed

Query: Now give it for `MDRDELVRYLDAYLRIQDFPQDPSLNGLQVEGKRTVRKVGAAVDAGEAIFRKALEEEVDFLIVHHGLFWGKPFPIVGHHKRRLETLFQGGINLYAAHLPLDAHEEVGNNFVLARELGLVDLTPWDVGVKGRFPQPTPLLQVADRLGQLTGMQPLVHQGGLDHVETVILVSGSGTGLLPKVDADLFVTGEPKHSVFHETFERGLNVIYAGHYDTETFGVKALAAHLEARFGLPWVFLDHPTGL` too.
Reply: not failed

***
Query: Param item = `SQFVLQDLQDATLGSLLSSLMQHCDPPQRKYPLEKGTPPPWWPTGNEEWWVKLGLPKSQSPPYRKPHDLKKMWKVGVLTAVINHMLPDIAKIKRHVRQSKCLQDKMTAKESAIWLAVLNQEESLIQQ` ; retrieve measured protein production.
Reply: not failed

Query: Now give it for `MAEEVRQELSALAAIFCGPNEWEMLSCSETDGAVFRIHTTAEGLVGEDVPLELAFHLPVGYPLCLPGISVTSEHLTRAQCVTAKEKLLGEARKLVSEPMVHELVLWIQQNLRLVLSQPETVSSHEKCTLPESATGDDGPWMTLLRLDHMRARTKYVKAVEKWASELRLTGRLMFMGKLILILLQGDRSNIKEYLILQKTSKVDVDSSGKKCKEKMISVLSETKVQTEHKRFLAFEVKEYSTLEELQKEFGAAGLGELFSECVLGLVK` too.
Reply: failed
